Listing: IC50 of selected compounds
# target.desc: UniProtKB Q13464
# assay.info: Inhibition of recombinant human ROCK1 (17 to 535 residues) using […] as substrate incubated for 40 mins in presence of [gamma-33P]ATP and 10 uM ATP by radiometric scintillation counting analysis

Solved entries:
CN(C)c1ccc(C(=O)Nc2cccc(NC(=O)COc3ccc4c(c3)CCC(=O)N4)c2)cc1 > 10 µM
CN(C)c1ccc(C(=O)Nc2cccc(NC(=O)COc3ccc4c(c3)NC(=O)CC4)c2)cc1 > 10 µM

Kindly review the next compound as well.
IN: Which IC50 value is on record for CN(C)c1ccc(C(=O)Nc2cccc(NC(=O)COc3ccc4c(c3)OCO4)c2)cc1 ?
OUT: > 10 µM

----------
# target.desc: Rho-associated protein kinase 1 (Homo sapiens)
# assay.info: Inhibition of recombinant human ROCK1 (17 to 535 residues) using […] as substrate incubated for 40 mins in presence of [gamma-33P]ATP and 10 uM ATP by radiometric scintillation counting analysis
pIC50: −log10 of the molar value.
readout: pIC50

CC(C)(C)c1ccc(S(=O)(=O)Nc2cccc(NC(=O)COc3ccc4c(=O)ccoc4c3)c2)cc1 < 5.00

IN: Which pIC50 value is on record for CN(C)c1ccc(C(=O)Nc2cc(Br)cc(NC(=O)COc3ccc4c(=O)ccoc4c3)c2)cc1 ?
OUT: < 5.00

IN: Which pIC50 value is on record for CN(C)c1ccc(C(=O)Nc2ccc(CNC(=O)COc3ccc4c(=O)ccoc4c3)cc2)cc1 ?
OUT: < 5.00

----------
# target.desc: Rho-associated protein kinase 1 (Homo sapiens, UniProt Q13464)
# Sequence (Q13464 whole entry, the tested form may be a part): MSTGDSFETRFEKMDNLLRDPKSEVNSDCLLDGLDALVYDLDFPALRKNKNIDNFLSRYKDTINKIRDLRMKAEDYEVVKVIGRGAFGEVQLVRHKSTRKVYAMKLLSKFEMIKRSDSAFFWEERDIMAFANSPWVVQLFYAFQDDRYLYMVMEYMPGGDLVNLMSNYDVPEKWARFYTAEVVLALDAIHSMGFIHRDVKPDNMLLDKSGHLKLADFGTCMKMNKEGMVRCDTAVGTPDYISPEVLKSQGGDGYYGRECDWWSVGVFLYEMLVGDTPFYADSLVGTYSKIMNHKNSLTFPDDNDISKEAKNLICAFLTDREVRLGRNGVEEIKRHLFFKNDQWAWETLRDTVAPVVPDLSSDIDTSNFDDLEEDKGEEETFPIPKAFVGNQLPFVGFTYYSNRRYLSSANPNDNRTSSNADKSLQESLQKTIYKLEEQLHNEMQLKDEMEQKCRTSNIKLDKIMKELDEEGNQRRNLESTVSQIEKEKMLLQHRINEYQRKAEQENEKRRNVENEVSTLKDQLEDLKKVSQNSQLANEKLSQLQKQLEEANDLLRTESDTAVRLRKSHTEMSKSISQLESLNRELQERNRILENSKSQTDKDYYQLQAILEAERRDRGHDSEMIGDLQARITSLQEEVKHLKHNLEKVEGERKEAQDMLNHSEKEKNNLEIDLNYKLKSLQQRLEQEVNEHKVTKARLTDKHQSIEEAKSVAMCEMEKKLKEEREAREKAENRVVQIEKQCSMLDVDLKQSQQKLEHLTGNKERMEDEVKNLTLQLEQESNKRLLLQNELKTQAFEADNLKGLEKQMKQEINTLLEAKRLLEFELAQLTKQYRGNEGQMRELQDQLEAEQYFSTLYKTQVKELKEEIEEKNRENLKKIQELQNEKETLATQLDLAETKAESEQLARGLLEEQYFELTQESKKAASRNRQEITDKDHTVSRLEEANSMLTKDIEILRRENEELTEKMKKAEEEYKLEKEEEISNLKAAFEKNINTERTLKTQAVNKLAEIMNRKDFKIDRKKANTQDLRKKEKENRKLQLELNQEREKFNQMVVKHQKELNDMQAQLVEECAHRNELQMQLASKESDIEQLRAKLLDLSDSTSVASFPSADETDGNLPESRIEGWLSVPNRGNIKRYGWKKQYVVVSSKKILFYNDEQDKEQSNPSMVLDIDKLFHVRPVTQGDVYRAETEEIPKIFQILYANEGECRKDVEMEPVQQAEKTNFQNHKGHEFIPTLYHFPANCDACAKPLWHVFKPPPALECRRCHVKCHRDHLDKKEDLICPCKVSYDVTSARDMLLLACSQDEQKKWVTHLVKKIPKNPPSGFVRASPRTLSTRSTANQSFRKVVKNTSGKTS
# assay.info: Inhibition of recombinant human ROCK1 (17 to 535 residues) using […] as substrate incubated for 40 mins in presence of [gamma-33P]ATP and 10 uM ATP by radiometric scintillation counting analysis
pIC50: −log10 of the molar value.
readout: pIC50

IN: Which pIC50 value is on record for Cc1cc(NC(=O)COc2ccc3c(=O)ccoc3c2)ccc1NC(=O)c1ccc(N(C)C)cc1 ?
OUT: < 5.00

IN: Which pIC50 value is on record for COc1ccc(OCC(=O)Nc2cccc(NC(=O)c3ccc(N(C)C)cc3)c2)cc1OC ?
OUT: < 5.00

IN: Which pIC50 value is on record for CN(C)c1ccc(C(=O)Nc2cccc(NC(=O)COc3ccc4occc(=O)c4c3)c2)cc1 ?
OUT: < 5.00

IN: Which pIC50 value is on record for CN(C)c1ccc(C(=O)Nc2cc(NC(=O)COc3ccc4c(=O)ccoc4c3)cc(C(F)(F)F)c2)cc1 ?
OUT: < 5.00

IN: Which pIC50 value is on record for Cc1cc(NC(=O)COc2ccc3c(=O)ccoc3c2)cc(NC(=O)c2ccc(N(C)C)cc2)c1 ?
OUT: < 5.00

IN: Which pIC50 value is on record for Cc1coc2cc(OCC(=O)Nc3cccc(NC(=O)c4ccc(N(C)C)cc4)c3)ccc2c1=O ?
OUT: < 5.00

IN: Which pIC50 value is on record for CC(=O)c1ccc(OCC(=O)Nc2cccc(NC(=O)c3ccc(N(C)C)cc3)c2)cc1F ?
OUT: 6.35

IN: Which pIC50 value is on record for O=C(COc1ccc2c(=O)ccoc2c1)Nc1cccc(NC(=O)c2ccc([N+](=O)[O-])cc2)c1 ?
OUT: 7.17

IN: Which pIC50 value is on record for Cc1nc(C(=O)Nc2cccc(NC(=O)COc3ccc4c(=O)ccoc4c3)c2)cs1 ?
OUT: 6.33

IN: Which pIC50 value is on record for COc1ccc(C(=O)Nc2cccc(NC(=O)COc3ccc4c(=O)ccoc4c3)c2)cc1 ?
OUT: 7.74
